The measured values listed here are drawn from patent US20110033376A1.

- System: G-361 melanoma cells
- test-name: CellTiter-Blue cell viability assay
- Format: cell-based, human
- condition-info: G-361, 24 hours incubation, CellTiter-Blue
measure-name: IC50 (µM)
Output spec: scalar in µM, unitless text.

## Input Return reported IC50; argument: N.N.[Cl][Pt][Cl] [Cisplatin]
## Output 18

---

- test-name: Preliminary pharmacokinetic (PK) and maximum tolerated dose (MTD) study
- Type: in vivo, CD1 A375 tumour-bearing mice
- condition-info: mouse, in vivo, iv; i.v. single dose, CD1 mice
measure-name: MTD (mg/kg)
Return type: number; implicit unit mg/kg.

## Input Which MTD value belongs to CCCCCCC(C)(C)c1cc(O)c2c(c1)OC(C)(C)[C@H]1CC=C(CO)C[C@H]21 [Dexanabinol] ?
## Output 100
